Quick reference for apparent KD of MS2 coat protein among some sequences
# System: MS2 coat protein
# procedureDetails: apparent KD of MS2 coat protein; designed switch direction (-1 OFF switch, 1 ON switch): -1; higher = weaker reporter binding
# runParameters: input ligand: FMN 200 uM

- chainSequence: "CGCGCGCGUGUAGGAUAUGUGUUUGGUUCGGGCGCAGAAGGACAUGAGGAUCACCCAUGUGUGUGUGUGCGCGCAGUGUGUGCG [-30, -27 kcal, 15% A] (Eterna round: R96, puzzle: Exclusion NG 1)"
  apparent KD of MS2 coat protein, nM: 55
- chainSequence: "CCGAAACAUGAGGAUCACCCAUGUGAGGAUAUGAGCGUCUAGUUGAGAGAUUGGACGCUCAGAAGGCACAUUGG [JR_Ex1_Sub075] (Eterna round: R97, puzzle: Exclusion 1)"
  apparent KD of MS2 coat protein, nM: 76.7
- chainSequence: "CUGUUUUUCGCAGGAUAUGCUUCUCCUUUAUUAGCAGAAGGGCGUUAAACAUGAGGAUCACCCAUGUAUGGUAAUGACAUUUUC [JR_ExcNG1_Sub061] (Eterna round: R96, puzzle: Exclusion NG 1)"
  apparent KD of MS2 coat protein, nM: 98.3
- chainSequence: "UAUGGUUAAGUCAGGAUAUACUAAUAGAAGUCUGUGUAGAAGGGACAUGAGGAUCACCCAUGUAUGGUAGUGUU [Ex4 #60] (Eterna round: R97, puzzle: Brourd's mod of Exclusion 4)"
  apparent KD of MS2 coat protein, nM: 119
- chainSequence: "UUAAAUCAUGUAGGAUAUGCGUGGAGAAGCUAUGCAGAAGGACAUGAGGAUCACCCAUGUGCUUCCGUCUGAGAACAGACGGUA [Mat - Exclusion NG 1 - Mod of JL - D13] (Eterna round: R96, puzzle: Exclusion NG 1)"
  apparent KD of MS2 coat protein, nM: 210

====

# Test system: MS2 coat protein
# procedureDetails: apparent KD of MS2 coat protein; designed switch direction (-1 OFF switch, 1 ON switch): -1; higher = weaker reporter binding
# runParameters: input ligand: none
Quick reference for apparent KD of MS2 coat protein among some sequences

- chainSequence: "CAUGAUUGGGAAGGAUAUUGACCUAGUUAGCGCCGAGAAGGUCCCUUUCACAUGAGGAUCACCCAUGUGAGUCUGGUGUUCGAG [Ex NG1 #96] (Eterna round: R96, puzzle: Exclusion NG 1)"
  apparent KD of MS2 coat protein: "37.6 nM"
- chainSequence: "AGUUUUAAUGAGGAUAUCGUAUUGGAUAUAGUGCGAGAAGGCAUUACAUGAGGAUCACCCAUGUUUUGUUGGGA [JR_Ex6_Sub008] (Eterna round: R97, puzzle: Exclusion 6)"
  apparent KD of MS2 coat protein: "24.5 nM"
- chainSequence: "GCAGCAUAGUGUUAUUACACAAUACAUGAGGAUCACCCAUGUGAGGAUAUGGACUGGAUUACAGUCCAGAAGGCACAAAGCUGC [Zipper Style 3] (Eterna round: R96, puzzle: Exclusion NG 3)"
  apparent KD of MS2 coat protein: "19.8 nM"

====

# Test system: MS2 coat protein
# procedureDetails: apparent KD of MS2 coat protein; designed switch direction (-1 OFF switch, 1 ON switch): -1; higher = weaker reporter binding
# runParameters: input ligand: microRNA oligo, concentration not stated
Quick reference for apparent KD of MS2 coat protein among some sequences
metric: apparent KD of MS2 coat protein (nM)

- chainSequence: "GUGAAGUAAGGAUAUACAUGAGGAUCACCCAUGUGGAGGAAGGUGAUGGGAGUAGGUAGUAGAAGGUACGAGGA [JR_Exclu3_Sub064] (Eterna round: R96, puzzle: Exclusion 3)"
  metric: "apparent KD of MS2 coat protein"
  reportedMeasurement: 134
- chainSequence: "CACGUACAGCAAGGAUAUCCAAAUGUUGAGCAUGGCCUAUCCAUACAUGAGGAUCACCCAUGUUCGGAGAAGGUGCAUGUAUCU [Enteinte] (Eterna round: R96, puzzle: Exclusion NG 2)"
  metric: "apparent KD of MS2 coat protein"
  reportedMeasurement: 9.96
- chainSequence: "UUUGUUUAUGUAGGAUAUGCCUGGCGUGCCUUCGCAGAAGGACAUGAGGAUCACCCAUGUAUUGCGGUCUGCGUUCAGAUCGCG [salish99_ExNG1_r4_029] (Eterna round: R96, puzzle: Exclusion NG 1)"
  metric: "apparent KD of MS2 coat protein"
  reportedMeasurement: 34.8

====

# System: MS2 coat protein
# procedureDetails: apparent KD of MS2 coat protein; designed switch direction (-1 OFF switch, 1 ON switch): 1; higher = weaker reporter binding
# runParameters: Eterna round: R98; input ligand: none

- chainSequence: "GGACGUCACAUAAACAUGAGGAUCACCCAUGUCAAAAGACAUGAGGAUAUGGAUGCGAAACGCAUCCAGAAGGCAUGGACGUCC [EliMod 4 - Jieux - Same State NG 3]"
  apparent KD of MS2 coat protein: "728 nM"
- chainSequence: "UAGAAGUGGUGAGGAUAUGAAUACGGCUCAUUAUCCUACAUGAGGAUCACCCAUGUGGGUGGUCGUCAGAAGGCACUGCUAUCG [Edretirige]"
  apparent KD of MS2 coat protein: "32.3 nM"
- chainSequence: "AAAACAUGAGGAUCACCCAUGUAAAGAUCGGUUAAUAGAAGUGAGGAUAUACAAAAUUUUAGGUAGUAGAAGGCACAGGGUACA [JR_SSNG3_Sub046]"
  apparent KD of MS2 coat protein: "33 nM"
- chainSequence: "GGACUCACUUGAGGAUAUCGAGUGGAUAACACUCGAGAAGGCAGGGAAACCUGAGGAUCACCCAGGUAAGAGUCCAAUAAUAAA [Same State NG1 - A3C, U17G Submission 2D]"
  apparent KD of MS2 coat protein: "42.1 nM"
- chainSequence: "GGUUUCAGGAUAGGAUAUGGCGUGACAUGGCGGCCAGAAGGAUCCUCGGGAACAUGAGGAUCACCCAUGUGACCGUGUCGAGUC [Biveedve]"
  apparent KD of MS2 coat protein: "741 nM"
- chainSequence: "AGAACAUGAGGAUCACCCAUGUGAAGGUCGGCGUAUAAGGGUGAGGAUAUGCUUAAAAUAAGGAAGCAGAAGGUACUUGGUGCG [SameState #80 NG3]"
  apparent KD of MS2 coat protein: "165 nM"

====

# System: K4 kissing-loop RNA reporter;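 note: bound reporter read as fluorescence of individual clusters on recovered sequencing chips by microscopy, with normalized cluster intensities fitted with a binding model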
# procedureDetails: apparent KD of K4 kissing-loop reporter; higher = weaker reporter binding
# runParameters: Eterna round: R107; input ligand: none
# binarize apparent KD of K4 kissing-loop reporter: threshold 200 nM inclusive, high side t, low side f

- chainSequence: "UGUCAUUGGUCUGAUACCAGUACCCUUGGCAGCCAAGGAGUGAUGUUCCGAGGAUACCAGUGCCCUUGGCAGCAGACCGAUGACU [TheoBS 27 #DoubleAptamer #SwitchBubble]"
  groupLabel: "t"
- chainSequence: "AUCGUUGUCUGAGGAUAUCGGUUAUCUGUAGUGAUGUUACAGUAUAUUGAUAUUAAAGUUUCUAUUCGAGAAGGCAGACUACGUA [JR_Nu_ExcFMNB_Sub022]"
  groupLabel: "f"
- chainSequence: "AAGUGUUCUAGUGAUACCAGACAUUUCUAUUACAUUAAUAUAGCUAAGUGAUGUUUAGCAGUCCCUUGGCAGCACUAUUUCACUA [JR_SSTheophyB_Sub015]"
  groupLabel: "f"
- chainSequence: "UCCACGCUUAGAGGAUAUCGGAUUAGAGUGAUGUUCUAAAGAAGCCCAGUGAUGUUGGAUGGUAUACGAGAAGGCUGUGGCGUGU [Same State FMN B GF 4]"
  groupLabel: "t"
- chainSequence: "UGUAUGUGAUUUGAUACCAGACCAGCUGGUGGAUCACGAGUGAUGUUCGUGUUGGUUUGGGUCCCUUGGCAGCAAAUCGCAUACU [KL-SSTheoB13]"
  groupLabel: "f"
- chainSequence: "AUUUUUUUGUCAGGAUAUUAGUGUGCGUUUGGUUUGUUAGUGAUGUUGAUAUUUGGUUUAUGUAUUUAAGAAGGGAUUUAGCGGU [dhbbtemullin]"
  groupLabel: "t"
- chainSequence: "CAGGCGACUAUCGAUACCAGAUGAUAUCGACUACUUGAGUGAUGUUCGAUUAAAGGCAUUAUCCCUUGGCAGCGACUGGACACAU [theeternabot_sameState_KL_Theo_B_24]"
  groupLabel: "t"
- chainSequence: "CUUGGAAGGACGGCCGCCACUCGACGGAGUGAUGUUCCGUGUGGGUAGCGCAGUGAUGUUGUGUCGAGGACCGGGUCCUAGGAAU [Exclusion Tryptophan B GF 28]"
  groupLabel: "f"
- chainSequence: "UGGAGUUGACGAAAAGUCAACUCCUGAGAUACCAGUGACGAAAGUCACCCUUGGCAGCUCACUGGCAGUGAUGUUGCUAUAUAAA [KL-SSTheo-A3]"
  groupLabel: "f"
- chainSequence: "UGACACUCAACGGCCGCCACUACCGUCGCCGAAUUCCGCAGUGAUGUUGCGAUCCUCCGAUUGUCUAGGACCGGGUUGUUUGGGC [theeternabot_exclusion_KL_Trp_B_43]"
  groupLabel: "t"
- chainSequence: "AACUGUCAAGGCCAACAUUACUGAGGUGAUACCAGCAUCGAAAGAUGCCCUUGGCAGCACCGACUUGCAGUGAUGUUGCAAGUAA [BrourdMod 12 - Jieux - Exclusion - Theophylline A]"
  groupLabel: "t"

Values from the supplement of paper PMC9170038
